System: SF-268 CNS
Experiment: NCI-60 one-dose screen, 48 h
Conditions: 10 µM unless noted
About 83,000 compounds went through this panel and 20% of them were active in at least one assay; those are over-represented in the sample as a whole. The source made the active and inactive calls. How the source made its calls: active means growth percent below 10; inactive means the rest.
Classes used: y = active, n = inactive

compound=c1ccc(-c2cc3cc4ccccc4cn3c2)cc1 discrete_label=n
compound=O=C(OC12CC3CC(CC(C3)C1)C2)c1ccc(NCc2cc(O)ccc2O)cc1 discrete_label=y
compound=CCOC(=O)C1=NN(c2ccccc2)C(=O)/C1=C\N1C(=O)/C(=C/c2cccc(O)c2)SC1=S discrete_label=n
compound=C(=N\Nc1ccc2ccccc2n1)/c1ccccn1 discrete_label=n
compound=CC1(C)CCCC2=C1C(=O)N(SC(Cl)(Cl)Cl)C2=O discrete_label=n
compound=Cc1ccc2c(c1)sc(-c1ccc(N(C)C)cc1)[n+]2C discrete_label=n
compound=C/C(=N/NC(N)=S)c1ccc(C)cc1 discrete_label=n
compound="CCN(CC)CCNC(Cc1ccccc1)c1ccc(OCc2ccccc2)cc1 (configuration not stated)" discrete_label=n
compound=Cc1cccc2c(N)c3ccccc3nc12 discrete_label=y
compound=Cc1oc2c(C)c3oc(=O)cc(C)c3cc2c1CCl discrete_label=n
compound=Cc1onc(-c2ccccc2)c1C(=O)N/N=C/c1cc(Cl)cc(Cl)c1O discrete_label=n
compound="COc1ccc(C(Cn2ccnc2)Sc2ccc(Cl)c(Cl)c2)cc1 (configuration not stated)" discrete_label=n
compound=CCOC(=O)c1cc(CC)sc1NC(=O)CC(C)=O discrete_label=n
compound=CCCCCCN(CCCCCC)CCCNc1nccc2ccccc12 discrete_label=n
compound=Cc1cc(C)c([I+]c2c(C)cc(C)cc2C)c(C)c1 discrete_label=y
compound="CCN1CCCC(Nc2cc(C)nc(/N=C(/N)Nc3ccc(Cl)c(Cl)c3)n2)C1 (configuration not stated)" discrete_label=y
compound="CCC1C[N+]2=C(c3cc(OC)c(OC)cc3CC2)c2c1cc1n2CCc2cc(OC)c(OC)cc2-1 (configuration not stated)" discrete_label=n
compound=O=C(Nc1cccc(C(F)(F)F)c1)Oc1ccc(Cl)c2cccnc12 discrete_label=n
compound="CCCCC(C=O)(C=C=C(C)C)CC (configuration not stated)" discrete_label=n
compound=c1csc(-c2[nH]nc3c2CCc2ccccc2-3)c1 discrete_label=n
compound=NNc1ccc(Cl)cc1Cl discrete_label=n
compound=O=C(/C=C/C(Cl)(Cl)Cl)Nc1ccc(Cl)cc1 discrete_label=n
compound="CC(/C=N/NC(N)=S)Cc1ccc(C(C)C)cc1 (configuration not stated)" discrete_label=n
compound=Cc1ccc(NC2=CC(=O)C(=O)c3ccccc32)cc1 discrete_label=n
compound=O=C(CCl)N1c2ccccc2Sc2c1ccc1ccccc21 discrete_label=n
compound=O=C(O)c1cccc2cccc(-c3c4ccc(=O)c(O)c-4oc4c(O)c(O)ccc34)c12 discrete_label=n
compound="CCCCCCCCCCCC(=O)OC(C)C(=O)NCCCC (configuration not stated)" discrete_label=n
compound="CC(CSc1n[nH]c(=S)s1)c1ccccc1 (configuration not stated)" discrete_label=n
compound=Cc1cc(C)c(C#N)c(Sc2nc(C)c([N+](=O)[O-])c(C)c2C#N)n1 discrete_label=n
compound=COc1cc(OC)c(/C=C/c2c3ccccc3cc[n+]2C)c(OC)c1 discrete_label=n
compound=CN(C)c1ccc(C(=C2C=CC(=[N+](C)C)C=C2)c2ccc(N(C)C)cc2)cc1 discrete_label=y
compound=O=C/C=C/c1ccc([N+](=O)[O-])cc1 discrete_label=n
compound=CC(C)(C)c1ccc(O)c(Br)c1 discrete_label=n
compound="OC(CSc1ccccc1)CN1CCN(c2ccc(Cl)cc2)CC1 (configuration not stated)" discrete_label=n
compound=Nc1nc(N)c2cc(Sc3cccc(C(F)(F)F)c3)ccc2n1 discrete_label=n
compound=CN=C(N)N/N=C(\C)c1ccc2c(c1)Cc1ccccc1-2 discrete_label=y
compound=O=[N+]([O-])C=C(c1ccccc1)c1ccccc1 discrete_label=n
compound=NNc1cccc([N+](=O)[O-])c1 discrete_label=n
compound=COc1c(C)c2c(c(O)c1C/C=C(\C)CCC(=O)O)C(=O)OC2 discrete_label=n
compound=O=C1Nc2ccc(Br)cc2C1=O discrete_label=n
compound=O=C(Cc1nc2cc(Cl)c(Cl)cc2nc1CC(=O)c1cccnc1)c1cccnc1 discrete_label=n
compound=COC(=O)C(=[N+]=[N-])C(=O)c1ccc([N+](=O)[O-])o1 discrete_label=n
